target: Serine/threonine-protein kinase/endoribonuclease IRE1 (Homo sapiens, UniProt O75460); assay: IRE-1alpha Assay: A fusion protein comprising glutathione S transferase (GST) and human IRE-1α (GST-IRE-1α) obtained from a 500 ml baculovirus-infected insect cell culture can be used to measure IRE-1α activity in vitro. Five μl of a reaction mixture comprising 1× reaction buffer (5× reaction buffer is 100 mM Hepes pH 7.5, 250 mM KOAc, 2.5 mM MgCl2), 3 mM DTT, and 0.4% polyethylene glycol water is added to each well of 384 well plates. Twenty-five nanoliters of a 1 mM test compound solution are added to test wells. Three μl of a 128 ng/ml IRE-1α preparation are added to each test well and to positive control wells (final concentration 5.82 ng/well). Negative control wells contain only reaction mixture and test compound. After spinning the plates at 1200 rpm for 30 seconds, 3 μl of an IRE-1α human mini-XBP-1 mRNA stem-loop substrate 5'-[…]-3' (SEQ ID NO:1), labeled with the fluorescent dye Cy5 at the 5' end and Black Hole Quencher 2 (BH2) at the 3' end, are added to each well of a control plate. The plates are again spun at 1200 rpm for 30 seconds. Final concentrations for the assay are: 63 nM IRE-1α substrate, 5.82 ng IRE-1α protein, and 2.5 μM test compound. The plates are covered with lids and incubated for one hour at 30° C. The plates are then transferred to an ACQUEST™ microplate reader. Data is analyzed using data analysis software, and the percent activity of IRE-1α is calculated.
Sequence (O75460 whole entry, the tested form may be a part): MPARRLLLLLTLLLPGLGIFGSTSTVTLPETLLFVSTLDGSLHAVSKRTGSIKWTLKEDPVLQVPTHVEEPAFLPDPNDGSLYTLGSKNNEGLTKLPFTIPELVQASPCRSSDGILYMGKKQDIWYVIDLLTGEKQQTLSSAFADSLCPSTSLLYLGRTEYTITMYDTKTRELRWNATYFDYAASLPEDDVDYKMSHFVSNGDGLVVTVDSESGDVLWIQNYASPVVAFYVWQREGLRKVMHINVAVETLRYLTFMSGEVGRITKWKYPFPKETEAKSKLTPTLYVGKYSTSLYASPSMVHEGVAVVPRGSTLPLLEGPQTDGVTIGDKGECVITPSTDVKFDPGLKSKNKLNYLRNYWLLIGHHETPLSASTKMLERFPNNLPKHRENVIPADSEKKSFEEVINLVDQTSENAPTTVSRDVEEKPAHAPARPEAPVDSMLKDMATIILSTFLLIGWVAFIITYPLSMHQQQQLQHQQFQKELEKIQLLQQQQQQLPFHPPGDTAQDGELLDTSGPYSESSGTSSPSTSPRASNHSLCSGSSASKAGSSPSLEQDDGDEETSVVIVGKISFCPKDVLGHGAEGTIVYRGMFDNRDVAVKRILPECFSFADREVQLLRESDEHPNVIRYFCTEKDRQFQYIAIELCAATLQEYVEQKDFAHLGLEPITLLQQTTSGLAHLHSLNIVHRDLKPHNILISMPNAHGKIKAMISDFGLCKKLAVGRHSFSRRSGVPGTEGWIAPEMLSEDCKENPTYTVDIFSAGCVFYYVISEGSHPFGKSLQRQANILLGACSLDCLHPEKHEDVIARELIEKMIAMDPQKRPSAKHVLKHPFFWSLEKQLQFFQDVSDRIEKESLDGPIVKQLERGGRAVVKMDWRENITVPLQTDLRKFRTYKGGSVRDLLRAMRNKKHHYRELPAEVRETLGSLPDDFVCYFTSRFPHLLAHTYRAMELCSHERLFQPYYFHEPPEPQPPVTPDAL
assay_readout: EC50

{"compound_structure": "Cc1c(CCC(=O)N2CCOCC2)c(=O)oc2c(C=O)c(O)ccc12", "test_result": "< 10 µM"}
{"compound_structure": "COc1cc2c(C)c(Br)c(=O)oc2c(C=O)c1O", "test_result": "< 10 µM"}
{"compound_structure": "CC1CCN(C(=O)c2ccc(-c3ccc4c(C=O)c(O)ccc4n3)cc2)CC1", "test_result": "> 10 µM"}
{"compound_structure": "COc1cc2c(C)c(-c3ccc(C(=O)N4CCOCC4)cc3)c(=O)oc2c(C=O)c1O", "test_result": "< 10 µM"}
